# Tested on: UACC-62 melanoma
# experiment.summary: NCI tumour cell line growth inhibition, 48 h; in the data active means GI50 below about 0.43 µM; inactive means the rest
Your response should consist of one outcome taken from active, inactive

• CC(=O)OC(C)C(OC(C)=O)C(OC(C)=O)C(/C=C/C1CC=CC(=O)O1)OC(C)=O (stereo not given) = inactive
• C[C@H]1c2ccccc2CN1CCCOc1cc2c(cc1OCC1CC1)C1(CCCC1)C(N)=N2 = inactive
• Nc1n[nH]c(N)c1N=Nc1ccc(O)cc1 = inactive

**Query** Record lookup: outcome of this test for CCOC1OC(=O)[C@H]2[C@@H]1[C@@H]1CC[C@H]2O1 (stereo not given in full) ?
**Result** inactive

**Query** Record lookup: outcome of this test for `CC/C=C\C/C=C/C=C1/C(=O)C=C[C@@H]1C/C=C\CCCC(=O)OC` ?
**Result** inactive

**Query** Record lookup: outcome of this test for CCOC(=O)C1=C(C)N2C(=NC3=C(CCC/C3=C\c3ccc(Cl)cc3)C2c2ccc(Cl)cc2)S1 (stereo not given) ?
**Result** inactive

**Query** Record lookup: outcome of this test for `Nc1ncccc1-c1nc2ccc(-c3ccccc3)nc2n1-c1ccc(C2(N)CCC2)cc1` ?
**Result** inactive

* * *

# Test system: KM12 colon
# experiment.summary: NCI tumour cell line growth inhibition, 48 h
Reported TGI values are given for each entry in this list.

Solved cases (3 shown):
• COC(=O)C1=C(C)N(NC(=O)c2ccccc2)C2(O)CCCC(=O)C12C (stereo not drawn) = > 100 µM
• CCCCc1ccc(-n2sc3ncccc3c2=O)cc1 = 32.5 µM
• COc1ccc(Oc2ccccc2NC(=O)CNC(=O)c2cccc3ccccc23)cc1 = > 25 µM

**Query** Please report the recorded TGI for `COc1cccc(NC(=O)CC(=O)NNCC(=O)Nc2nnc(-c3ccc(N(CCC#N)S(=O)(=O)c4ccccc4)cc3)s2)c1` .
**Result** > 100 µM

**Query** Please report the recorded TGI for `O=S1(=O)C(c2ccccc2)=C(O)c2ccccc21` .
**Result** > 100 µM

**Query** Please report the recorded TGI for CC1=C(C(=O)Nc2ccc(F)c(Cl)c2)C(c2ccccc2O)NC(=O)N1 (stereo not drawn) .
**Result** > 100 µM

**Query** Please report the recorded TGI for `COc1cc(OC)cc(-n2c(N)c(-c3nc4ccccc4n3C)c3ccc([N+](=O)[O-])cc3c2=O)c1` .
**Result** > 100 µM

**Query** Please report the recorded TGI for `CC(=O)Nc1ccc(C(=O)N2N=C(C)/C(=C/c3cccc([N+](=O)[O-])c3)C2=O)cc1` .
**Result** > 100 µM

**Query** Please report the recorded TGI for O=C(O)c1cc(Cl)cc2c1NC1(N2)C(=O)Nc2ccccc21 (stereo not drawn) .
**Result** > 100 µM

**Query** Please report the recorded TGI for `Clc1nc(Nc2nc3ccccc3[nH]2)nc(Cl)c1Cc1ccccc1` .
**Result** > 100 µM

**Query** Please report the recorded TGI for `CCC[CH2][Sn]([CH2]CCC)([O]C(=O)/C=C/c1ccccc1F)[O]C(=O)/C=C/c1ccccc1F` .
**Result** 2.72 µM

**Query** Please report the recorded TGI for C#C[C@H]1CCCCCC1O (stereo partly drawn) .
**Result** > 100 µM

**Query** Please report the recorded TGI for `Brc1cccc(-c2cc(-c3ccc4nccnc4c3)[nH]n2)c1` .
**Result** > 94.7 µM

**Query** Please report the recorded TGI for `COc1cc(OC)c2c(O)c(S(=O)(=O)c3ccc(C)cc3)c(=O)oc2c1` .
**Result** > 100 µM

**Query** Please report the recorded TGI for `CC/C=C\C/C=C/C=C1/C(=O)C=C[C@@H]1C/C=C\CCCC(=O)OC` .
**Result** 6.59 µM

**Query** Please report the recorded TGI for `CN1CCN(c2cc3nc4ccccc4n(-c4ccc(Cl)cc4)c-3cc2=N)CC1` .
**Result** 43.8 µM

**Query** Please report the recorded TGI for `CCOC(=O)c1c(N2CCOCC2)[nH]c(=O)c(C(c2cccs2)c2c(O)c(C(=O)OCC)c(N3CCOCC3)[nH]c2=O)c1O` .
**Result** > 100 µM

**Query** Please report the recorded TGI for `O=C(Nc1ccccc1Cl)c1cccc(NC2=C(Cl)C(=O)N(Cc3ccccc3)C2=O)c1` .
**Result** 9.86 µM

**Query** Please report the recorded TGI for CCN(CC)CCCC(C)Nc1c(Sc2cnc3cc(Cl)ccc3c2NC(C)CCCN(CC)CC)cnc2cc(Cl)ccc12 (stereo not drawn) .
**Result** 3.79 µM

**Query** Please report the recorded TGI for `Nc1n[nH]c(N)c1N=Nc1ccc(O)cc1` .
**Result** 74.1 µM

**Query** Please report the recorded TGI for `OCc1ccc(N2CCCC2)cc1Cl` .
**Result** > 100 µM

**Query** Please report the recorded TGI for `O=c1cccc(C#CC#CCCCO)o1` .
**Result** 9.26 µM

**Query** Please report the recorded TGI for `COC1=CC(=O)c2c(O)c3c(c(O)c2C1=O)C[C@](C)(O)C[C@@H]3O` .
**Result** 19 µM

**Query** Please report the recorded TGI for `Nc1cc2cccc[n+]2c2cccc(Cl)c12` .
**Result** 65.2 µM

**Query** Please report the recorded TGI for O=C1CSC(c2ccccc2O)N1c1nnc(Cn2ccnc2)o1 (stereo not drawn) .
**Result** > 100 µM

**Query** Please report the recorded TGI for Cc1nn(C(=O)c2ccncc2)c2c1C(c1cccc([N+](=O)[O-])c1)SC(N)=N2 (stereo not drawn) .
**Result** > 10 µM

**Query** Please report the recorded TGI for `O=S(=O)(NC1=NCCN1C(=S)SN1CCn2c1nsc2=S)c1cccc(OC(F)(F)F)c1` .
**Result** 24.5 µM

* * *

# Tested on: OVCAR-5 ovarian
# experiment.summary: NCI tumour cell line growth inhibition, 48 h
Reported GI50 values are given for each entry in this list.

- COc1ccc2c(c1)C(=O)c1c-2n(CCCN)c(=O)c2cc([N+](=O)[O-])ccc12: < 0.01 µM
- COc1cc(OC)cc(-c2n/c(=C\c3c(O)[nH]c4ccc(Cl)cc34)cc3c2=Nc2ccccc2-3)c1: 20.5 µM

**Query** Please report the recorded GI50 for CCOC(=O)C1=C(C)N2C(=NC3=C(CCC/C3=C\c3ccc(Cl)cc3)C2c2ccc(Cl)cc2)S1 (stereo not given) .
**Result** 20.1 µM

**Query** Please report the recorded GI50 for `N=C(N)c1ccc(-c2ccc(-c3ccc(Cl)cc3)s2)nc1` .
**Result** 1.56 µM

* * *

Reported TGI values are given for each entry in this list.
# Test system: NCI/ADR-RES ovarian
# experiment.summary: NCI tumour cell line growth inhibition, 48 h
Entry rule: numbers only, all in µM.

Solved cases (3 shown):
* CCN(CC)CCCC(C)Nc1c(-c2ccccc2)cnc2cc(Cl)ccc12 (stereo not given) | 28.3
* Clc1ccccc1NN(Cc1ccncc1)c1ccccc1Cl | 32
* CC[C@H]1C=CCC[C@@]2(C[C@@H]3CC[C@@H]4[C@H](C(=O)OCCCCCCCCCCCCCCCC(=O)N(CCCN)CCCCN)[C@]5(CCC[C@@H](C)O5)NC(=[N+]34)N2)O1 | 2.7

**Query** Please report the recorded TGI for `NC(=O)c1cccc(-c2cc(C(N)=O)ccc2Cl)c1` .
**Result** 25.9

**Query** Please report the recorded TGI for `COc1cc(OC)cc(-c2n/c(=C\c3c(O)[nH]c4ccc(Cl)cc34)cc3c2=Nc2ccccc2-3)c1` .
**Result** 10.8

**Query** Please report the recorded TGI for O=NN(CCCl)C(=O)NC1CCC(=O)NC1=O (stereo not given) .
**Result** 710

**Query** Please report the recorded TGI for C=C1CC[C@@H]2[C@](C)(COC(C)=O)[C@H](OC(C)=O)CC[C@@]2(C)[C@@H]1CC(Nc1ccc(S(=O)(=O)Nc2nccs2)cc1)C1=CCOC1=O (stereo not given in full) .
**Result** 12.7

**Query** Please report the recorded TGI for `Nc1n[nH]c(N)c1N=Nc1ccc(O)cc1` .
**Result** 92.4

**Query** Please report the recorded TGI for `CC(=O)O[C@H]1CN(S(=O)(=O)c2ccc(C)cc2)C[C@@H]1C1CCCCC1` .
**Result** 58.5

**Query** Please report the recorded TGI for `COc1cccc(CC(C)=C(c2ccc(OCCCN(C)C)cc2)c2ccc(OCCCN(C)C)cc2)c1` .
**Result** 1.28

**Query** Please report the recorded TGI for `Cc1ccc(Sc2oc(-c3ccc(C)cc3)nc2[P+](c2ccccc2)(c2ccccc2)c2ccccc2)cc1` .
**Result** 2.21

**Query** Please report the recorded TGI for `N/C(=N\c1nc2ccccc2s1)NC(=NC1CCCCC1)NC1CCCCC1` .
**Result** 3.3

**Query** Please report the recorded TGI for `CC(C)(C)c1cc(C(=O)/C=C/c2ccn[nH]2)cc(C(C)(C)C)c1O` .
**Result** 16.1

**Query** Please report the recorded TGI for CC(C)C(C/C=C1/CC(CO)(COC(=O)C2CCCCC2)OC1=O)C(C)C (stereo not given) .
**Result** 42.7
